Biological target: T1, Human IL2Rγ extracellular domain expressed with a C-terminal myc-myc-hexahistidine tag (human)
T1 construct: also called hIL-2Rg-MMH; hIL-2RG-MMH
T1 chain: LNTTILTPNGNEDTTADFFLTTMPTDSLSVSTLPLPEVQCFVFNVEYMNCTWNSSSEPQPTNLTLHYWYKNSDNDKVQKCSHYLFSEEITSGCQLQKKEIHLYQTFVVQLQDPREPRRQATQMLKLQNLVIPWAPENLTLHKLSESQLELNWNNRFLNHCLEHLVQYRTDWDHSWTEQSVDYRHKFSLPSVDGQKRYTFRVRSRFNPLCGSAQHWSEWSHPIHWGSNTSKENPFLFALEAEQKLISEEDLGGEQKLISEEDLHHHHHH
Assay: SPR, captured mAb, 37C, dissociation pH 6.0
Record form. Attribute: 100 nM Ag Bound (RU). Fill in for each entry.
Numbers only, in RU.

{"columns": ["binder", "100 nM Ag Bound (RU)"],
 "data": [
  ["H4H12889P (antibody, human IgG4 S228P, kappa, V domains shown, anti-IL2Rgamma mAb expressed with human IgG4 Fc; also called REGN7257) VH: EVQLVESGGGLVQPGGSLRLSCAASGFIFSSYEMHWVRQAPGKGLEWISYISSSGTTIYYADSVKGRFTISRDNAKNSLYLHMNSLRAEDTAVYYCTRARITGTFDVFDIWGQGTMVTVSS VL: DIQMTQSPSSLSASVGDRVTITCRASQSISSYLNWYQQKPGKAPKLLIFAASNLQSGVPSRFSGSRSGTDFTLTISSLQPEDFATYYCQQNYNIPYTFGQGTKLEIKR", 153]
]}

Lookup: Recorded 100 nM Ag Bound (RU) of H4H12899P (antibody, human IgG4 S228P, kappa, V domains shown, anti-IL2Rgamma mAb expressed with human IgG4 Fc) VH: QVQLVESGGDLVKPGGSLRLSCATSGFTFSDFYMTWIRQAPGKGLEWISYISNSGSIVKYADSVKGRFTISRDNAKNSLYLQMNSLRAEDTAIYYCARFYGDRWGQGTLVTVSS VL: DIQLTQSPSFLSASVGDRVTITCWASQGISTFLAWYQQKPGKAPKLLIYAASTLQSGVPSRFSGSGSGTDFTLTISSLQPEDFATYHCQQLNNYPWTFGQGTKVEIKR , please.
Found: 125
